Kindly supply the reported cytotoxicity at 10 µM values for the records listed here.
assay: Toxicity liver stage against HepG2, at 10uM; format: cell-based; design: test concentration 10 uM, cell line HepG2-A16-CD81EGFP; conditions: human, HepG2-A16-CD81EGFP cells; read-out: INHIBITION
Numeric only. Scale: %

Give the measured cytotoxicity at 10 µM of O=C1CN(Cc2ccc(-c3ccccc3C(=O)O)cc2)CCN1 .
-1.88

Please give the measured cytotoxicity at 10 µM for this compound: Cc1noc(C)c1CC(=O)N1CCCC(Cn2ccnc2C)C1 (centres undefined)
-3.6

Name the reported cytotoxicity at 10 µM value associated with the compound CC1Oc2c(cccc2C(=O)N2CCN(CC(C)(C)O)CC2)NC1=O (centres undefined)
-8.9

Entry COc1ccc(F)c(F)c1CN1CCN(CC(C)C)C(=O)C1C (centres undefined) : reported cytotoxicity at 10 µM = ?
-6.29

# query: cytotoxicity at 10 µM of entry Cc1ccc(CNC(=O)NC2CCCc3c2cnn3CCO)cn1 (centres undefined)
-11.8

Endpoint output: cytotoxicity at 10 µM of O=C(c1ccc(S(=O)(=O)NCCc2ccncc2)cc1)N1CCCC1 . Value?
1.67

Query: cytotoxicity at 10 µM; subject: COCCO[C@H]1CCN(Cc2cccs2)[C@H]1Cc1cccnc1
-2.23

Which value of cytotoxicity at 10 µM has been reported for O=C(c1cc(F)cc2[nH]cnc12)N1CCCCC1Cn1cccn1 (centres undefined) in the records?
16.5

Which cytotoxicity at 10 µM reading was recorded for the compound Cc1nc(C)c(C)c(N2CCC3(CCOC3)C2)n1 (centres undefined) ?
-1.31

Given the entry c1coc(-c2nnc(CN3CCCC3Cn3cncn3)o2)c1 (centres undefined) , report its measured cytotoxicity at 10 µM.
-5.46

I would be grateful if you could share the reported cytotoxicity at 10 µM for N#Cc1ccc(N2CCCN(c3nccs3)CC2)nc1 .
32.5

Give its cytotoxicity at 10 µM value. Item: O=C(Cc1ccc2c(c1)OCO2)N1CCN(c2cnccn2)CC1
-5.51

Consider the compound shown here: CCCc1cc(NCCCC2CCOC2)n2nccc2n1 (centres undefined) What is its recorded cytotoxicity at 10 µM?
-0.247

Can you look up the measured cytotoxicity at 10 µM of Cc1cccc(CNC(=O)Nc2cc(C(F)(F)F)c[nH]c2=O)n1 for me?
0.488

I am curious: what cytotoxicity at 10 µM value has been reported for CCc1ccc(CNC(=O)N2CCN(Cc3cc(C)no3)CC2)s1 ?
1.45

Which cytotoxicity at 10 µM value belongs to O=C(NCC1CCCCC1)N1C[C@@H]2C[C@H](C(=O)N3CCOCC3)[C@H](C1)O2 ?
-99.4

# lookup: cytotoxicity at 10 µM of CC(=O)N1CCCC(c2nnc3n2CCN(C(=O)C2CCCCC2)C3)C1 (centres undefined)
0.685

Query (compound): COCCCC1(CO)CCCN(C(=O)c2cnc(C3CC3)nc2)C1 (centres undefined) ; field requested: cytotoxicity at 10 µM
-39.7

Find the recorded cytotoxicity at 10 µM belonging to c1ccc(-c2noc([C@@H]3Cc4nc[nH]c4CN3)n2)cc1 and report it.
-4.26

Given the entry CCCN(CC1COc2ccccc2O1)C(=O)CCN1C(=O)CCC1=O (centres undefined) , report its measured cytotoxicity at 10 µM.
-37

Bench note: what cytotoxicity at 10 µM did Cn1nc(Cn2ccnc2)c2c1CN(c1ncccn1)C2 show?
5.3

Give its cytotoxicity at 10 µM value. Item: Cn1ncc2c1C(COCC1CC1)CN(Cc1cccnc1)C2 (centres undefined)
11.4

So what's the measured cytotoxicity at 10 µM for this one? CC(SCC(=O)N(C)CC(=O)NC1CC1)c1ccccc1F (centres undefined)
-2.49

Fill in: cytotoxicity at 10 µM of CCN1CC2(CC1=O)CN(C(=O)c1ccco1)CCN(C(=O)N(C)C)C2 (centres undefined) is ___
-8.37

* * *

experiment: Toxicity liver stage against HepG2, at 10uM; type: cell-based; parameters: test concentration 10 uM, cell line HepG2-A16-CD81EGFP; details: human, HepG2-A16-CD81EGFP cells; read-out: INHIBITION
experimental readout: cytotoxicity at 10 µM (%)
Give the number; % is assumed, so skip it.

Could you share which cytotoxicity at 10 µM value was measured for CCOC(=O)Cc1csc(NC(=O)c2cc3n(n2)CCCO3)n1 ?
-11.9

# input molecule: CCCc1cc(C(=O)NCCCC(=O)N2Cc3ccccc3C2)[nH]n1 ; wanted: its cytotoxicity at 10 µM
8.81

What does the data say about its cytotoxicity at 10 µM? Entry: CN1C[C@@H](F)[C@@H](OCc2nc3ccccc3n2C)C1
0.876

I'd like to know its cytotoxicity at 10 µM. The molecule in question is O=S1(=O)C[C@@H]2[C@H](C1)N(S(=O)(=O)N1CCCC1)CCN2Cc1ccccc1
-2.59

Entry under review: CN1CCC(N(C)C[C@H]2CC[C@@H](Cc3cccc(CO)c3)O2)CC1 . Reported cytotoxicity at 10 µM?
0.224

* * *

experiment: Toxicity liver stage against HepG2, at 10uM; assay type: cell-based; set-up: test concentration 10 uM, cell line HepG2-A16-CD81EGFP; details: human, HepG2-A16-CD81EGFP cells; read-out: INHIBITION
experimental readout: cytotoxicity at 10 µM (%)
# output: bare number, implied unit %

Fill in the blank: the reported cytotoxicity at 10 µM of NC(=O)NC1CCN(Cc2ccccc2OCC(F)(F)F)CC1 is ____.
0.451

Field request: cytotoxicity at 10 µM | item: O=C(c1n[nH]cc1Cl)N1CCOCC1
9.02

If you can, please state the reported cytotoxicity at 10 µM value of CN(C)c1ccnc(C2CCCN2)n1 (configuration not stated) .
1.76

Give the measured cytotoxicity at 10 µM of CN1CC2(CCNCC2)COc2ccccc2S1(=O)=O .
4.58

Entry Cc1ccc(OCC(=O)N(C)Cc2ccc(F)cc2)cn1 : reported cytotoxicity at 10 µM = ?
7.88

Data request, read-out cytotoxicity at 10 µM, for CC(C)c1nncn1CCNC(=O)c1ccc(Cl)cc1O
-5.01

Recorded cytotoxicity at 10 µM of Cc1cc(N2CCC(Cc3ccccc3)CC2)nc(-c2ccncc2)n1 , please.
-2.68

// query cytotoxicity at 10 µM value for entry Cc1nc[nH]c1-c1nnc(SCC(=O)O)n1-c1ccccc1C(F)(F)F
0.0448

Item Cc1cnn(CC2CCCCN2C(=O)Cc2cccc(F)c2)c1 (configuration not stated) has what recorded cytotoxicity at 10 µM?
-10.7

# input compound: CCCc1nc(N2CCN(CC)CC2)c2c(n1)c(C)nn2CC ; wanted: its cytotoxicity at 10 µM
-9.41

cytotoxicity at 10 µM lookup needed for CN(C)c1nccc(N2CCO[C@H]3CN(Cc4ccsc4)C[C@H]32)n1 , thanks.
8.93

Entry O=C([C@@H]1CCO[C@@H]2CCN(CC3CC3)C[C@H]21)N1CCCC1 has what cytotoxicity at 10 µM?
-103

* * *

Provide the recorded cytotoxicity at 10 µM for the entries that follow.
assay: Toxicity liver stage against HepG2, at 10uM; format: cell-based; design: test concentration 10 uM, cell line HepG2-A16-CD81EGFP; settings: human, HepG2-A16-CD81EGFP cells; read-out: INHIBITION
Don't forget the unit after the value.

Fill blank: measured cytotoxicity at 10 µM of the compound CSc1ncc(C(=O)N2CCN(c3ccccc3C)CC2C)cn1 (stereo not drawn) is ____.
0.642%

What value of cytotoxicity at 10 µM has been reported for the following compound? CC(C)c1ncc2c(n1)CN(Cc1nc(-c3ccsc3)no1)CC2
2.05%

Reported cytotoxicity at 10 µM for Cc1nnc(SCC(=O)NCc2ccc3c(c2)CCC(=O)N3)s1 : what is it?
-5.03%

// query cytotoxicity at 10 µM value for entry c1ccc2sc(CN3CCOC(Cn4cncn4)C3)nc2c1 (stereo not drawn)
-0.489%

Sample O=C1CCC2(CCN(Cc3cc(F)cc(F)c3)CC2)CN1CCO — what was its cytotoxicity at 10 µM?
-11.6%

What does the data say about its cytotoxicity at 10 µM? Entry: CN(CC1(O)CCCCC1)C1CCCN(Cc2noc(C3CC3)n2)C1 (stereo not drawn)
-17.3%

Give the measured cytotoxicity at 10 µM of CSc1ccc(C(CN)N2CCc3sccc3C2)cc1 (stereo not drawn) .
-5.93%

Item Cc1cc(-c2nn(C)c(Cl)c2CN2CCCCC(N)C2)no1 (stereo not drawn) has what recorded cytotoxicity at 10 µM?
-2.1%

# query: cytotoxicity at 10 µM of entry CC(=O)N1CCOC(c2c(C(=O)O)sc3ccccc23)C1 (stereo not drawn)
5.76%

State the recorded cytotoxicity at 10 µM for this entry: CCNC(=O)CNCc1c(C(C)C)nn(C)c1N1CCOCC1
-6.45%

I'd like to know its cytotoxicity at 10 µM. The compound in question is CN(CC(=O)Nc1cccc(F)c1)Cc1nc(N)nc(N(C)C)n1
-6.13%

Need cytotoxicity at 10 µM, item c1ccc2c(c1)COC1(CCCC1)N2
10.4%

What does the record list as cytotoxicity at 10 µM for Cc1c(C(=O)NCCC(=O)N2CCOCC2)oc2c(C)cccc12 ?
-1.96%

Would you mind telling me what cytotoxicity at 10 µM value was observed for CCCN1CCCC2(CCN(S(=O)(=O)c3cc(C)nn3CC)C2)C1=O (stereo not drawn) ?
4.82%

Form field: reported cytotoxicity at 10 µM of COc1ccccc1OCCNC(=O)N1CCC(n2cncn2)CC1
1.67%

Consider the compound COc1ccc(CNC(=O)NCCCNS(C)(=O)=O)cc1OC and give its measured cytotoxicity at 10 µM.
-10.6%

# input compound: Cc1cc(C)c(C(=O)N2CCN(c3ncccc3C#N)CC2)c(=O)[nH]1 ; wanted: its cytotoxicity at 10 µM
-3.28%

What cytotoxicity at 10 µM value was documented for this compound, Cc1ccc(CCC(=O)N2CCn3c(nnc3C(C)C)C2)cc1Cl ?
-5.45%

Can you look up the measured cytotoxicity at 10 µM of Cc1nc(CN2CCN(C(C)c3nc(C(C)C)no3)CC2)oc1C (stereo not drawn) for me?
-9.16%

If you can, please state the reported cytotoxicity at 10 µM value of COC1CCN(c2ccc(F)cc2CN(C)C(=O)c2cc[nH]n2)CC1 .
-4.32%

May I ask what cytotoxicity at 10 µM has been recorded for CCc1[nH]c2c(CNc3cncc(C(=O)OC)n3)cc(C)cc2c1C ?
1.85%

What value of cytotoxicity at 10 µM has been recorded for this entry: Cc1ccccc1C(=O)N1C[C@@H]2C(CN(C)CCc3ccccn3)[C@@H]2C1 (stereo partly drawn)
-54.9%

Looking for the measured cytotoxicity at 10 µM of Cc1cccc(NC(=O)[C@@H]2CCCN2CC(=O)N2CCCCCC2)n1 , can you help?
20.3%

Looking for the measured cytotoxicity at 10 µM of O=C(Nc1cn[nH]c1)c1ccncc1 , can you help?
-6.01%

# cytotoxicity at 10 µM lookup, item Cc1ccc(C(=O)NC2CCN(C(=O)Nc3ccncc3)CC2)o1
1.48%

Recorded cytotoxicity at 10 µM for Cc1cccc(N2CC3(CCN(S(=O)(=O)C4CC4)C3)C2)n1 , please?
3.86%

What does the record list as cytotoxicity at 10 µM for COC(=O)C(C)(C)NC(=O)C1CC(=O)N(C2CCCC2)C1 (stereo not drawn) ?
-10.3%

Fill blank: measured cytotoxicity at 10 µM of the compound NC(=O)CN1CCC(NC2CSCCc3ccccc32)CC1 (stereo not drawn) is ____.
-3.21%

What does the data say about its cytotoxicity at 10 µM? Entry: OCCn1cc(CN2CCN(CCOc3ccccc3F)CC2)cn1
-5.72%

Looking for the measured cytotoxicity at 10 µM of Cc1cc(C(=O)N2CCCCC2c2nc3cc(F)ccc3[nH]2)nn1C (stereo not drawn) , can you help?
4.42%

Please report the recorded cytotoxicity at 10 µM for CC1CS(=O)(=O)CCN1CCCc1ccc(Cl)cc1 (stereo not drawn) .
9.28%

cytotoxicity at 10 µM for CC(NC(=O)CCn1cccn1)c1cn(-c2ccccc2)nn1 (stereo not drawn) ?
0.554%

Quick one: cytotoxicity at 10 µM for CC(C)N1CCOC(CC(=O)N2CC(c3ccncc3)C2)C1 (stereo not drawn) ?
7.44%

Would you kindly share the measured cytotoxicity at 10 µM for CN(Cc1cc(C2CC2)[nH]n1)C(=O)c1ccccc1C1CCNC1 (stereo not drawn) ?
1.89%

Given the compound O=C(c1cnc2ccccc2c1)N1CCC2(CCN2c2ncccn2)C1 (stereo not drawn) , what is its reported cytotoxicity at 10 µM?
-122%

Which cytotoxicity at 10 µM is reported for this compound? O=C(NCCC1CC1)NCc1cccc(-n2ccnc2)c1
19.7%

Which measured cytotoxicity at 10 µM value corresponds to Cc1cnc(NCCCN2CCCCC2CO)nc1 (stereo not drawn) ?
-7.17%

So what does the record say about cytotoxicity at 10 µM for CN1CC(C(=O)NCc2ccc(OCc3cccnc3)cc2)CC1=O (stereo not drawn) ?
17.7%

Using the record for Cc1cc(C(=O)N2CCn3c(COCC4CCCC4)cnc3C2C)on1 (stereo not drawn) , report its cytotoxicity at 10 µM.
3.18%

# cytotoxicity at 10 µM lookup, item O=S1(=O)[C@@H](c2ccccc2)[C@H](CO)CN1c1ccccc1
-5.41%

Param item = CCCS(=O)(=O)N1CCN(c2cc(-n3cnc(C)c3C)nc(C)n2)CC1 ; retrieve measured cytotoxicity at 10 µM.
-8.51%

Can you look up the measured cytotoxicity at 10 µM of COCCN1C[C@H](OCc2csc(C)n2)[C@H]2COC[C@H]21 for me?
-6.08%

Can you share its cytotoxicity at 10 µM? I mean this compound: CCc1nc(C2CCCN(C(=O)c3c[nH]c(C(C)C)n3)C2)no1 (stereo not drawn)
-5.43%

I am curious: what cytotoxicity at 10 µM value has been reported for CCc1nc(CN(C)C2CCN(Cc3cnc(C)cn3)C2)no1 (stereo not drawn) ?
4.23%

Any idea what cytotoxicity at 10 µM was measured for CC(C)Cc1ccc(S(=O)(=O)NCCCN2CCNC(=O)C2)cc1 ?
-4.36%

Requested read-out: cytotoxicity at 10 µM. Entry: CCOc1ccc(CN2CCC(c3nc(C)cc(C)n3)C2)cc1CO (stereo not drawn)
2.75%

What measured cytotoxicity at 10 µM goes with CCc1nc(CN(Cc2cccs2)CC2CCCO2)no1 (stereo not drawn) ?
2.26%

Endpoint output: cytotoxicity at 10 µM of CC(C)CNC(=O)CNC(=O)NCC(O)c1ccc2ccccc2c1 (stereo not drawn) . Value?
-2.52%
